The following compounds are shown together with reported TGI values.
- Tested on: NCI-H522 lung
- Measurement protocol: NCI tumour cell line growth inhibition, 48 h
Write the number in µM without appending the unit.

The examples below pair each entry with its known result.
Ask: Would you mind telling me what TGI value was observed for Cc1ccc2c(n1)C(=O)C=CC2=O ?
Reply: 3.51

Ask: What does the data say about its TGI? Entry: COc1ccc(N/N=C(\CCN(C)C)c2ccccc2)cc1
Reply: 30

Could you now consider this next compound?
Ask: # get_value(readout='TGI', item= CS(=O)(=O)Nc1cccc(-c2cc(-c3ccccc3Cl)c(C#N)c(N)n2)c1 )
Reply: 3.89

* * *

- System: U251 CNS
- Measurement protocol: NCI tumour cell line growth inhibition, 48 h
Value kind: TGI

Examples with answers:
Ask: Record request: TGI value, item Brc1c(C#CCC(c2ccccc2)(c2ccccc2)c2ccccc2)ccc(C#CCC(c2ccccc2)(c2ccccc2)c2ccccc2)c1Br
Reply: > 100 µM

Ask: Entry CN1CCCCC(C#N)(c2ccccc2)CC1 (stereo not drawn) : reported TGI = ?
Reply: > 100 µM

Ask: Report TGI for COc1ccc(C[C@@H]2NC[C@@H](O)[C@@H]2OC(C)=O)cc1 please.
Reply: 0.453 µM

Others:
Ask: Give its TGI value. Item: C/C=C1/CN2CCC3(O)c4ccccc4N4C=C(C(=O)OC)C1CC2C43O (stereo not drawn)
Reply: > 100 µM

Ask: Entry under review: COc1cc(Nc2ncc(F)c(Nc3ccc4c(n3)NC(=O)C(C)(C)O4)n2)cc(OC)c1OC . Reported TGI?
Reply: > 10 µM

Ask: Please report the recorded TGI for Cc1cc(S(=O)(=O)/N=C(\[N-]S(=O)(=O)c2ccc(Cl)cc2)[n+]2ccc(N(C)C)cc2)c(S)cc1Cl .
Reply: > 100 µM

Ask: Recorded TGI of CC(C)(C)c1cc2c(O)c(c1)Cc1cc(C(C#N)(Cc3ccc4ccccc4c3)Cc3ccc4ccccc4c3)cc(c1O)Cc1cc(C(C)(C)C)cc(c1O)Cc1cc(C(C#N)(Cc3ccc4ccccc4c3)Cc3ccc4ccccc4c3)cc(c1O)C2 , please.
Reply: > 100 µM

Ask: Field request: TGI | item: COC(=O)CCC(=O)Nc1cc(Cl)ccc1Cl
Reply: > 100 µM

* * *

A collection of molecules and their measured TGI
- System: CAKI-1 renal
- Measurement protocol: NCI tumour cell line growth inhibition, 48 h

Example entries begin here.
Ask: Look up TGI for this molecule: COP(=O)(Cc1ccccc1)Cc1ccccc1
Reply: > 100 µM

Ask: Bench note: what TGI did O=C1NC(N2CCCCC2)=N/C1=C\c1cccs1 show?
Reply: > 100 µM

Ask: For the molecule shown here, OC[C@]1(n2nc3ccccc3n2)OC[C@@H]1c1ccccc1 , give the reported TGI.
Reply: > 100 µM

Ask: So what does the record say about TGI for O=C(Cc1csc(-c2nc(CC(=O)NNc3ccccc3)cs2)n1)NNc1ccccc1 ?
Reply: > 100 µM

Ask: Given the molecule COc1ccc(C(=O)C(c2ccc(OC)cc2)C2OC(=O)C(Cl)=C2Cl)cc1 (stereo not drawn) , what is its reported TGI?
Reply: > 100 µM

Further cases:
Ask: For the molecule shown here, OC(COc1ccc(F)cc1)Cn1cnc2c(Cl)ncnc21 (stereo not drawn) , give the reported TGI.
Reply: 37.6 µM

Ask: Quick check: TGI of CN(C)CCNC(=O)c1cccc2c(Nc3ccc(S(N)(=O)=O)cc3)c3ccccc3nc12 ?
Reply: 13.6 µM

Ask: Which measured TGI value corresponds to O=C(O)c1cc2ccccc2oc1=O ?
Reply: > 100 µM

Ask: I am curious: what TGI value has been reported for O=C(O)CCC/C=C\C[C@H]1C=CC(=O)/C1=C/C[C@@H](O)CCc1cccc(C(F)(F)F)c1 ?
Reply: 14.7 µM

Ask: Consider the molecule C/C(=N\Nc1nc2ccccc2n1C)c1cnccn1 and give its measured TGI.
Reply: > 100 µM
